Overview of reported remaining at 1 h, 5 ug/ml across a group of compounds:
Assay: Stability in mouse liver microsomes assessed as parent compound remaining at 5 ug/ml after 1 hr at 37 degC by reverse phase HPLC method
Assay type: ADME
Details: read-out: Stability
Just the number in %, nothing appended.

Completed entries (count: 3):
COc1cc(-c2ccncc2)cc(C(C)C#Cc2c(C)nc(N)nc2N)c1 (centres undefined) | 33.7
CCc1nc(N)nc(N)c1C#CCc1cc(OC)cc(-c2ccncc2)c1 | 0
CCc1nc(N)nc(N)c1C#CC(C)c1cc(OC)cc(-c2ccncc2)c1 (centres undefined) | 29.2

Lab note: next compound to report on.
Data request: Can you look up the measured remaining at 1 h, 5 ug/ml of `CCc1nc(N)nc(N)c1C#CCc1cc(-c2ccncc2)ccc1OC` for me?
Data returned: 26.5

----------
Test: Half life in mouse liver microsomes at 5 ug/ml at 37 degC by reverse phase HPLC method
Format: ADME
assay.metric: half-life at 5 ug/ml (min)
Just the number in min, nothing appended.

Completed entries (count: 3):
CCc1nc(N)nc(N)c1C#CCc1cc(-c2ccncc2)ccc1OC | 31
CCc1nc(N)nc(N)c1C#CC(C)c1cc(-c2ccncc2)ccc1OC (stereo not given) | 65
COc1cc(-c2ccncc2)cc(C(C)C#Cc2c(C)nc(N)nc2N)c1 (stereo not given) | 38

Lab note: next compound to report on.
Data request: Can you look up the measured half-life at 5 ug/ml of CCc1nc(N)nc(N)c1C#CC(C)c1cc(OC)cc(-c2ccncc2)c1 (stereo not given) for me?
Data returned: 34
